Molecular target: Kappa-type opioid receptor (Cavia porcellus)
Sequence (P41144 whole entry): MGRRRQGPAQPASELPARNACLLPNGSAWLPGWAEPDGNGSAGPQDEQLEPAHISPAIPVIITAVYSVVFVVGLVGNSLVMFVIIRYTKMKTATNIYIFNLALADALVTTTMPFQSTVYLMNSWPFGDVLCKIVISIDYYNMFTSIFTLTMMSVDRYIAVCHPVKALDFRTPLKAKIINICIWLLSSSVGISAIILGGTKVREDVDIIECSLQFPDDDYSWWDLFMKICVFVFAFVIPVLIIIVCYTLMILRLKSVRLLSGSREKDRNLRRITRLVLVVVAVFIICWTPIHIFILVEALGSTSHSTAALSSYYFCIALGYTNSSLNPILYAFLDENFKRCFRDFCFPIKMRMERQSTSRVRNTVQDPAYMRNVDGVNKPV
Experiment: Agonist activity at KOR in guinea pig vas deferens
measurementType: EC50 (nM)
Kindly provide the numeric value in nM only, without the unit symbol.

query: What reported EC50 corresponds to CO[C@]12CC[C@@]3(C[C@@H]1[C@](C)(O)C(C)(C)C)[C@H]1Cc4ccc(O)c5c4[C@@]3(CCN1CC1CC1)[C@H]2O5 on Kappa-type opioid receptor (Cavia porcellus)?
result: 21

---

Biological target: Mu-type opioid receptor (Cavia porcellus, UniProt P97266)
Sequence (P97266 whole entry): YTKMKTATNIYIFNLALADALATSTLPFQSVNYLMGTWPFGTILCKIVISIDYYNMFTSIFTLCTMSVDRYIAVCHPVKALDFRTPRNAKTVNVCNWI
Experiment: Agonist activity at MOR in guinea pig vas deferens
measurementType: EC50 (nM)
Kindly provide the numeric value in nM only, without the unit symbol.

query: What measured EC50 goes with CO[C@]12CC[C@@]3(C[C@@H]1[C@](C)(O)C(C)(C)C)[C@H]1Cc4ccc(O)c5c4[C@@]3(CCN1CC1CC1)[C@H]2O5 [BUPRENORPHINE] ?
result: 21

---

Test: Displacement of [3H]Cl-DPDPE from DOR in guinea pig brain membrane
measurementType: Ki (nM)
Kindly provide the numeric value in nM only, without the unit symbol.

query: What measured Ki goes with CO[C@@]12CC[C@@]3(C[C@@H]1[C@](C)(O)C(C)(C)C)[C@H]1Cc4ccc(O)c5c4[C@@]3(CCN1CC1CC1)[C@H]2O5 ?
result: 1.6

This collection of values is drawn from ChEMBL document CHEMBL2176977.
